Entries and their growth
Test system: HCT-15 colon
Protocol summary: NCI-60 one-dose screen, 48 h (100 = growth as untreated, 0 = no growth, -100 = all killed)
Experimental parameters: 10 µM unless noted
The panel holds about 83,000 compounds, 20% with a hit somewhere; the sample as a whole holds those more often.
Measure: growth (%)

>>> recorded_number("Clc1ccc(CSc2nnc(-c3ccc(Cl)cc3)n2-c2ccccc2)cc1")
93.3
>>> recorded_number("COc1ccc(C(=O)c2c(N)c(C#N)cn2-c2ccc(Cl)cc2Cl)cc1")
99.3
>>> recorded_number("CC1=C(SCC(=O)OCCCCCC(C)C)C(=O)c2ccccc2C1=O")
89.3

Cited source for all entries: PubChem BioAssay (NCI)
